Recorded RGA IC50 by entry
Molecular target: T1, murine IL-11 (mouse, UniProt P47873 22-199)
T1 sequence: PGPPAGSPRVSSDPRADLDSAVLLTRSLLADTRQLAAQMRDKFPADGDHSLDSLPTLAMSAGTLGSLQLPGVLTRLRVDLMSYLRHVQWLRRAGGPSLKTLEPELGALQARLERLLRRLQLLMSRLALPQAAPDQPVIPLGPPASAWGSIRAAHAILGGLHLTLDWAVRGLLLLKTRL
Experiment: cell-based or functional assay
# number only, unit nM dropped from output

binder | quantity_kind | experimental_result
TPP-26300 (antibody, V domains shown) VH: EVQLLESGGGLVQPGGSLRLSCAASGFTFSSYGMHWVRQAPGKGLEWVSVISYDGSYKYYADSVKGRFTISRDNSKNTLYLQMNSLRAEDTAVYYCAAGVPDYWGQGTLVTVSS VL: QSVLTQPPSASGTPGQRVTISCTGSSSNIGAGYDVHWYQQLPGTAPKLLIYSNNERPSGVPDRFSGSKSGTSASLAISGLRSEDEADYYCAAWDSSLNGPVFGGGTKLTVL | RGA IC50 | 1.1

QUERY: Please report the recorded RGA IC50 for TPP-26290 (antibody, V domains shown) VH: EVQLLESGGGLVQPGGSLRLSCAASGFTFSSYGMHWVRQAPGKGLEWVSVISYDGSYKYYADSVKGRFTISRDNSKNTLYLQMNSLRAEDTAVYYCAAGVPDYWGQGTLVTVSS VL: QSVLTQPPSASGTPGQRVTISCTGSSSNIGAGMDVHWYQQLPGTAPKLLIYSNNERPSGVPDRFSGSKSGTSASLAISGLRSEDEADYYCAAWDDSLNGPVFGGGTKLTVL .
RESULT: 0.97

QUERY: Please report the recorded RGA IC50 for TPP-26303 (antibody, V domains shown) VH: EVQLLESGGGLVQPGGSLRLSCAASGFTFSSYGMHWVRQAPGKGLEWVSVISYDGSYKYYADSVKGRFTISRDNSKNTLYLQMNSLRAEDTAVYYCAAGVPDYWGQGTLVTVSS VL: QSVLTQPPSASGTPGQRVTISCTGSSSNIGAGYDVHWYQQLPGTAPKLLIYSNNERPEGVPDRFSGSKSGTSASLAISGLRSEDEADYYCAAWDDSLNGPVFGGGTKLTVL .
RESULT: 2.3
